Biological target: furin, P09958;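 also: purified furin at 1:10 enzyme:substrate in 50 mM HEPES pH 7.5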
Sequence (P09958 whole entry): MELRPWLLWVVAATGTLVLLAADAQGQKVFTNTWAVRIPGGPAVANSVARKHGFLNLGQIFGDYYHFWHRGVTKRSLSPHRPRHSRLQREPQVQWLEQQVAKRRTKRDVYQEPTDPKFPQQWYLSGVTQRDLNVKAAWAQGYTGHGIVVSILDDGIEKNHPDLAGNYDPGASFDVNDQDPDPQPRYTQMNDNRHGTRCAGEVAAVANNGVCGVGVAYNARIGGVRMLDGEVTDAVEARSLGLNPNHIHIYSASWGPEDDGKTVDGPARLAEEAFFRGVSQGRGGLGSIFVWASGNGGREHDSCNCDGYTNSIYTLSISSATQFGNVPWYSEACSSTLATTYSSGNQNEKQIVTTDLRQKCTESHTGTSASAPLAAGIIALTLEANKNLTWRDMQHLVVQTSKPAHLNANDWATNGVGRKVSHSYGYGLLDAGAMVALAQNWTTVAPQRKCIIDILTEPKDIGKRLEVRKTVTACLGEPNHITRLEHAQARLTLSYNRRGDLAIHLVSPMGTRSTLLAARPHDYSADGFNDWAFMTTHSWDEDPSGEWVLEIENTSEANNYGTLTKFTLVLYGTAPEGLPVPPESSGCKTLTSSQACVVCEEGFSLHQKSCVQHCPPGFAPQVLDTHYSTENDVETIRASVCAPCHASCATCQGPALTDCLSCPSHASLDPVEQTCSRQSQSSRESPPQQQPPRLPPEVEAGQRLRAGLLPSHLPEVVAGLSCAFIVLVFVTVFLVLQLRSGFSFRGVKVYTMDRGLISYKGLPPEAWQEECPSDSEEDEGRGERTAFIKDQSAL
Assay: furin cleavage Z-score vs untreated control; higher = more cleavage, active = 3.5 or more, inactive = 1 or less, 8 variable residues between constant flanks
Details: 30 min
The list shows a part of the results. No count for the full screen is at hand.
measurementType: furin cleavage Z-score
No unit in the answer, only the number.

{"sequenceText": "CARNGRWEESAGNASASA [FS-3005]", "furin cleavage Z-score": 0.183}
{"sequenceText": "CASTPCSFHLAGNASASA [HC2527]", "furin cleavage Z-score": 1.39}
{"sequenceText": "CARKKRRRESAGNASASA [FS-1903]", "furin cleavage Z-score": 4.85}

Read the next record carefully.
Identify furin cleavage Z-score associated with the sequence CARKKRLKESAGNASASA [FS-2343]
1.93
